# Test system: A498 renal
# Assay remarks: NCI tumour cell line growth inhibition, 48 h
Answer each item with its documented TGI.

Compound | Measured
Cc1cccc(C)c1NC(=O)CCc1nnc2s/c(=C\c3ccc(N(C)C)cc3)c(=O)n12 | > 100 µM
Cn1c(=O)c2sc3c4sc5c(=O)n(C)c6ccccc6c5c4sc3c2c2ccccc21 | > 100 µM
CC(C)c1ccc(C2NC(=S)NC3=C2c2ccccc2C3=O)cc1 (stereo unspecified) | > 60.8 µM

Batch request: TGI per item, same order as input.
1. CC(=O)OC1OC(c2ccoc2)C[C@@]12C1CCC3O[C@]3(C)[C@]1(C)[C@H](OC(C)=O)[C@H](OC(C)=O)[C@H]2C (stereo partly specified)
2. C/C(=N\NC(N)=S)c1ccc(C)c(C)c1
3. Cn1nc2ccc([N+](=O)[O-])cc2[n+]1[O-]
4. CCOC(=O)C1C=C2O[C@@H]3OC4(CCCCC4)O[C@@H]3C2C2C(=O)CCC(=O)[C@@]12C(=O)OC (stereo partly specified)
5. CCN(CC)Cc1ccccc1CC(=O)N1c2ccccc2C(=O)Nc2cccnc21
6. COC(=O)c1cc(OS(=O)(=O)C(F)(F)F)c(=O)n2c1CCCC2

["> 37.5 µM", "> 100 µM", "> 100 µM", "> 100 µM", "> 100 µM", "> 100 µM"]

Give TGI for each of the items listed below.
1. COc1cc(-n2cc(-c3ccccc3)[nH]c2=O)cc(OC)c1OC
2. Cn1c2c(c3ccccc31)CCN=C2C1CCCOC1=O (stereo unspecified)

1: > 100 µM; 2: > 100 µM
